assay_protocol: Acute 48 h aqueous toxicity test with glochidia (viability)
Assay type: in vivo, Lampsilis siliquoidea
condition_summary: Lampsilis siliquoidea, in vivo
readout_label: viability at 48 h, 0.03 mg/L (%)
Answers are plain numbers, in %.

-- ask Supply reported viability at 48 h, 0.03 mg/L belonging to this compound: CC(C)(C)NC(=O)[C@H]1CC[C@H]2[C@@H]3CC[C@H]4NC(=O)C=C[C@]4(C)[C@H]3CC[C@]12C [Finasteride]
-- reply 87

* * *

assay_protocol: Acute 48 h aqueous toxicity test with glochidia (viability)
Format: in vivo, Lampsilis siliquoidea
condition_summary: Lampsilis siliquoidea, in vivo, other: aqueous (water-only) exposure; 48-h aqueous exposure, 0.3 mg/L mean measured, n = 4; read-out: Viability (mean, % (standard deviation))
Protocol: Aqueous acute toxicity tests were based on the American Society for Testing and Materials (ASTM [2013]) protocols for conducting toxicity tests with early life stages of freshwater mussels. […] Glochidia were removed from gravid females and their viability (i.e., ability to close their valves) was assessed. […] After 24 and 48 h of exposure, glochidia viability was assessed in a minimum of 100 glochidia per replicate (four replicates). […]
readout_label: viability at 48 h, 0.3 mg/L

-- ask Supply reported viability at 48 h, 0.3 mg/L belonging to this compound: C=C1C[C@H]2[C@@H]3C=C(C)C4=CC(=O)CC[C@]4(C)[C@H]3CC[C@]2(C)[C@@]1(OC(C)=O)C(C)=O [Melengestrol acetate]
-- reply 85%

* * *

assay_protocol: Acute 48 h aqueous toxicity test with glochidia (viability)
Format: in vivo, Lampsilis siliquoidea
condition_summary: Lampsilis siliquoidea, in vivo, other: aqueous (water-only) exposure; 48-h aqueous exposure, 4 mg/L mean measured, n = 4; read-out: Viability (mean, % (standard deviation))
readout_label: viability at 48 h, 4 mg/L (%)
One number for each entry, in %.

-- ask Supply reported viability at 48 h, 4 mg/L belonging to this compound: C=C1C[C@H]2[C@@H]3C=C(C)C4=CC(=O)CC[C@]4(C)[C@H]3CC[C@]2(C)[C@@]1(OC(C)=O)C(C)=O [Melengestrol acetate]
-- reply 70
